- assay-target: Hypoxia inducible factors; HIF-1-alpha, HIF-2-alpha (Homo sapiens, UniProt Q16665+Q99814)
- assay-overview: Inhibition of hypoxia-induced HIF1 activation in human LN229 cells expressing HRE-AP reporter gene at 2.5 uM preincubated for 1 hr under normoxia condition followed by 24 hrs incubation under hypoxia condition by HRE-luciferase reporter assay relative to control; values are per cent of control
I'd appreciate it if you could supply residual activity values for the items below.
Use % as the unit, but write only the number.

Query COc1ccc(S(=O)(=O)N(Cc2ccc3c(c2)C=CC(C)(C)O3)c2ccccc2)cc1OC yields residual activity of 18

The recorded residual activity for CC1(C)C=Cc2cc(CN(Cc3ccccc3)S(=O)(=O)c3ccc(Oc4c(Cl)cccc4[N+](=O)[O-])cc3)ccc2O1 is 54

According to the records, this molecule CC(C)CN(Cc1ccc2c(c1)C=CC(C)(C)O2)S(=O)(=O)c1ccc(Oc2c(Cl)cccc2[N+](=O)[O-])cc1 displays residual activity of 34

The recorded residual activity for entry CC1(C)C=Cc2cc(CN(c3ccccc3)S(=O)(=O)c3cccc4ccccc34)ccc2O1 equals 55

====

- assay-target: Hypoxia inducible factors; HIF-1-alpha, HIF-2-alpha (Homo sapiens, UniProt Q16665+Q99814)
- assay-overview: Inhibition of hypoxia-induced HIF1 activation in human LN229 cells expressing HRE-AP reporter gene at 2.5 uM preincubated for 1 hr under normoxia condition followed by 24 hrs incubation under hypoxia condition by HRE-luciferase reporter assay relative to control; values are per cent of control
test-readout: residual activity
For clarity, give the value followed by its unit.

The recorded residual activity for COc1ccc(S(=O)(=O)N(Cc2ccc3c(c2)C=CC(C)(C)O3)c2ccccc2)c(OC)c1 is 76%

Just so you know, measured residual activity for CC(C)CN(Cc1ccc2c(c1)C=CC(C)(C)O2)S(=O)(=O)c1ccc([N+](=O)[O-])cc1 came out at 13%

Item: CC(C)CN(Cc1ccc2c(c1)C=CC(C)(C)O2)S(=O)(=O)c1ccc(Br)cc1OC(F)(F)F | residual activity: 49%

What the record says about CC(C)CN(Cc1ccc2c(c1)C=CC(C)(C)O2)S(=O)(=O)c1cccc2ccccc12 : residual activity is 6%

For this compound ( COc1ccc(S(=O)(=O)N(Cc2ccccc2)Cc2ccc3c(c2)C=CC(C)(C)O3)cc1OC ), measured residual activity is 54%

Briefly, residual activity measured for COc1ccc(Cl)cc1S(=O)(=O)N(Cc1ccccc1)Cc1ccc2c(c1)C=CC(C)(C)O2 : 66%

residual activity in this record for COc1ccc(S(=O)(=O)N(Cc2ccc3c(c2)C=CC(C)(C)O3)CC(C)C)cc1OC : 21%

// recorded residual activity for CC1(C)C=Cc2cc(CN(C3CCCCC3)S(=O)(=O)c3ccc(Br)cc3OC(F)(F)F)ccc2O1 : 79%

Measured residual activity of CC1(C)C=Cc2cc(CN(C3CCCCC3)S(=O)(=O)c3ccc(Oc4c(Cl)cccc4[N+](=O)[O-])cc3)ccc2O1 : 73%

====

For each of the molecules below, state its Activity.
- assay-target: Hypoxia inducible factors; HIF-1-alpha, HIF-2-alpha (Homo sapiens, UniProt Q16665+Q99814)
- assay-overview: Inhibition of hypoxia-induced HIF1 activation in human LN229 cells expressing HRE-AP reporter gene assessed as HRE remaining activity at 10 uM preincubated for 1 hr under normoxia condition followed by 24 hrs incubation under hypoxia condition by alkaline phosphatase reporter assay relative to control
- Type: cell-based
Kindly report the value followed by its unit.

According to the records, this molecule CC1(C)C=Cc2cc(C(O)c3cn(C(C)(C)C)nn3)ccc2O1 (stereo unspecified) displays Activity of 90.7%

The molecule listed as CC(c1ccc2c(c1)C=CC(C)(C)O2)n1ccnc1 (stereo unspecified) has a reported Activity of 86.6%

The reported Activity of the molecule CC(C)N(Cc1ccc2c(c1)C=CC(C)(C)O2)C(=O)c1cccs1 was 46.2%

So for COc1c(CN(Cc2ccccc2)S(=O)(=O)c2ccc(C)cc2)ccc2c1OC(C)(C)C=C2 , the logged Activity turned out to be 40.4%

The recorded Activity for entry CC1(C)C=Cc2cc(C(c3ccccc3)n3cnc4ncccc43)ccc2O1 (stereo unspecified) equals 83.5%

Short answer for COc1c(C(C)n2cnc3ncccc32)ccc2c1C=CC(C)(C)O2 (stereo unspecified) : Activity was 95.7%

Consider CC1(C)C=Cc2cc(C(c3ccccc3)n3ccnc3)ccc2O1 (stereo unspecified) . Its measured Activity is 88.9%

Please fill in: Activity reported for COc1c(CN(Cc2ccccc2)S(=O)(=O)c2ccc([N+](=O)[O-])cc2)ccc2c1OC(C)(C)C=C2 = 62.2%

Reported Activity for CCOC(OCC)c1ccc2c(c1OC)OC(C)(C)C=C2 was 105%

Memo: COc1c(/C=N/O)ccc2c1OC(C)(C)C=C2 , reported Activity: 89.4%

// sample CC1(C)C=Cc2cc(CN(c3ccccc3)S(=O)(=O)c3cc(Cl)ccc3Cl)ccc2O1 , its Activity was 54.2%

====

- assay-target: Hypoxia inducible factors; HIF-1-alpha, HIF-2-alpha (Homo sapiens, UniProt Q16665+Q99814)
- assay-overview: Inhibition of hypoxia-induced HIF1 activation in human LN229 cells expressing HRE-AP reporter gene assessed as HRE remaining activity at 10 uM preincubated for 1 hr under normoxia condition followed by 24 hrs incubation under hypoxia condition by alkaline phosphatase reporter assay relative to control
- Assay type: cell-based
Would you mind telling me the reported Activity of each entry?
# value in %; strip the unit string

Sure, the documented Activity for C=Cc1ccc2c(c1)C=CC(C)(C)O2 is 98.2

The compound listed as CC(C)N(Cc1ccc2c(c1)C=CC(C)(C)O2)S(=O)(=O)c1ccc([N+](=O)[O-])cc1 shows Activity equal to 43.2

// recorded Activity for COc1c(CN(c2ccccc2)S(=O)(=O)c2cc(Cl)ccc2Cl)ccc2c1OC(C)(C)C=C2 : 51.5

Activity for COc1c(C(C(C)C)n2ccnc2)ccc2c1C=CC(C)(C)O2 (stereo not given) is 135

CC1(C)C=Cc2cc(C(O)c3cn(CCNc4ccc([N+](=O)[O-])c5nonc45)nn3)ccc2O1 (stereo not given) yielded Activity of 116

The compound listed as CC1(C)C=Cc2cc(C(O)n3cc(-c4ccccc4)nn3)ccc2O1 (stereo not given) has a reported Activity of 106

Entry CC1(C)C=Cc2cc(C(O)c3cn(C45CC6CC(CC(C6)C4)C5)nn3)ccc2O1 (stereo not given) — recorded Activity = 101

The reported Activity of the compound CC1(C)C=Cc2cc(C(O)c3cn(Cc4ccccc4)nn3)ccc2O1 (stereo not given) was 88.8

Entry COc1c(CN(C(C)=O)c2ccccc2)ccc2c1OC(C)(C)C=C2 — recorded Activity = 108

Consider COc1c(C(C)n2ccnc2)ccc2c1C=CC(C)(C)O2 (stereo not given) . Its measured Activity is 104

====

- assay-target: Hypoxia inducible factors; HIF-1-alpha, HIF-2-alpha (Homo sapiens, UniProt Q16665+Q99814)
- assay-overview: Inhibition of hypoxia-induced HIF1 activation in human LN229 cells expressing HRE-AP reporter gene at 2.5 uM preincubated for 1 hr under normoxia condition followed by 24 hrs incubation under hypoxia condition by HRE-luciferase reporter assay relative to control; values are per cent of control
So I've got a bunch of compounds here, and I need their residual activity values.
Return type: number; implicit unit %.

CC(C)CN(Cc1ccc2c(c1)C=CC(C)(C)O2)S(=O)(=O)c1cc(Cl)ccc1Cl has a reported residual activity of 23

So for CC1(C)C=Cc2cc(CN(Cc3ccccc3)S(=O)(=O)c3ccc(Br)cc3OC(F)(F)F)ccc2O1 , the logged residual activity turned out to be 15

Looking up COc1ccc(Cl)cc1S(=O)(=O)N(Cc1ccc2c(c1)C=CC(C)(C)O2)c1ccccc1 , I see its residual activity listed as 61

Field residual activity (entry COc1ccc(Cl)cc1S(=O)(=O)N(Cc1ccc2c(c1)C=CC(C)(C)O2)CC(C)C ) reads 81

// sample CC1(C)C=Cc2cc(CN(C3CCCCC3)S(=O)(=O)c3cccc4ccccc34)ccc2O1 , its residual activity was 68

compound CC1(C)C=Cc2cc(CN(c3ccccc3)S(=O)(=O)c3ccc(Oc4c(Cl)cccc4[N+](=O)[O-])cc3)ccc2O1 , residual activity observed: 40

====

- assay-target: Hypoxia inducible factors; HIF-1-alpha, HIF-2-alpha (Homo sapiens, UniProt Q16665+Q99814)
- assay-overview: Inhibition of hypoxia-induced HIF1 activation in human LN229 cells expressing HRE-AP reporter gene at 10 uM preincubated for 1 hr under normoxia condition followed by 24 hrs incubation under hypoxia condition by HRE-luciferase reporter assay relative to control; values are per cent of control
Outcome: Fulfilled for residual activity of at least 20%; Not fulfilled for anything lower.

Query: Tell me whether residual activity is at least 20% here: CC1(C)C=Cc2cc(CN(C3CCCCC3)S(=O)(=O)c3cc(Cl)ccc3Cl)ccc2O1
Response: Fulfilled

Query: Hi, just wondering whether CC1(C)C=Cc2cc(CN(Cc3ccccc3)S(=O)(=O)c3ccc(Oc4c(Cl)cccc4[N+](=O)[O-])cc3)ccc2O1 shows residual activity of 20% or higher.
Response: Fulfilled

Query: Hi, just wondering whether COc1ccc(Cl)cc1S(=O)(=O)N(Cc1ccc2c(c1)C=CC(C)(C)O2)CC(C)C shows residual activity of 20% or higher.
Response: Fulfilled

Query: Check if residual activity >= 20% (inclusive). Item: COc1ccc(S(=O)(=O)N(Cc2ccc3c(c2)C=CC(C)(C)O3)C2CCCCC2)c(OC)c1
Response: Not fulfilled

Query: Hi, just wondering whether COc1ccc(S(=O)(=O)N(Cc2ccccc2)Cc2ccc3c(c2)C=CC(C)(C)O3)cc1OC shows residual activity of 20% or higher.
Response: Not fulfilled

Query: Determine whether measured residual activity meets or exceeds 20% for CC1(C)C=Cc2cc(CN(c3ccccc3)S(=O)(=O)c3cccc4ccccc34)ccc2O1
Response: Fulfilled

Query: Is it the case that CC(C)CN(Cc1ccc2c(c1)C=CC(C)(C)O2)S(=O)(=O)c1cccc2ccccc12 has residual activity reaching or exceeding 20%?
Response: Not fulfilled

Query: API: above_or_equal(metric=residual activity, cutoff=20%) for item COc1ccc(S(=O)(=O)N(Cc2ccc3c(c2)C=CC(C)(C)O3)c2ccccc2)c(OC)c1
Response: Fulfilled

Query: Say whether CC1(C)C=Cc2cc(CN(C3CCCCC3)S(=O)(=O)c3ccc(Br)cc3OC(F)(F)F)ccc2O1 shows residual activity of 20% or more.
Response: Fulfilled

Query: Decide: is the reported value of residual activity for COc1ccc(S(=O)(=O)N(Cc2ccc3c(c2)C=CC(C)(C)O3)c2ccccc2)cc1OC equal to or greater than 20%?
Response: Not fulfilled

Query: Please tell me: is the compound CC(C)CN(Cc1ccc2c(c1)C=CC(C)(C)O2)S(=O)(=O)c1cc(Cl)ccc1Cl at or over 20% in terms of residual activity?
Response: Not fulfilled

Query: Please check the record CC(C)CN(Cc1ccc2c(c1)C=CC(C)(C)O2)S(=O)(=O)c1ccc([N+](=O)[O-])cc1 and state if its residual activity is at or above 20%.
Response: Not fulfilled

Query: residual activity >= 20% for CC1(C)C=Cc2cc(CN(c3ccccc3)S(=O)(=O)c3cc(Cl)ccc3Cl)ccc2O1 ?
Response: Fulfilled

Query: Hi, just wondering whether CC1(C)C=Cc2cc(CN(Cc3ccccc3)S(=O)(=O)c3ccc(Br)cc3OC(F)(F)F)ccc2O1 shows residual activity of 20% or higher.
Response: Not fulfilled

Query: Please indicate if the recorded residual activity for CC1(C)C=Cc2cc(CN(C3CCCCC3)S(=O)(=O)c3ccc(Oc4c(Cl)cccc4[N+](=O)[O-])cc3)ccc2O1 meets or exceeds 20%.
Response: Fulfilled

Query: Decide: residual activity of CC1(C)C=Cc2cc(CN(C3CCCCC3)S(=O)(=O)c3cccc4ccccc34)ccc2O1 >= 20%?
Response: Fulfilled

Query: Is residual activity for CC1(C)C=Cc2cc(CN(c3ccccc3)S(=O)(=O)c3ccc(Br)cc3OC(F)(F)F)ccc2O1 at or above 20%?
Response: Fulfilled

Query: Reported residual activity at or above 20%? CC(C)CN(Cc1ccc2c(c1)C=CC(C)(C)O2)S(=O)(=O)c1ccc(Br)cc1OC(F)(F)F
Response: Fulfilled

Query: Determine whether measured residual activity meets or exceeds 20% for CC1(C)C=Cc2cc(CN(c3ccccc3)S(=O)(=O)c3ccc([N+](=O)[O-])cc3)ccc2O1
Response: Fulfilled

Query: // inclusive: residual activity at least 20%? input: CC1(C)C=Cc2cc(CN(c3ccccc3)S(=O)(=O)c3ccc(Oc4c(Cl)cccc4[N+](=O)[O-])cc3)ccc2O1
Response: Fulfilled

Query: Check this compound for residual activity at or above 20%: COc1ccc(S(=O)(=O)N(Cc2ccc3c(c2)C=CC(C)(C)O3)C2CCCCC2)cc1OC
Response: Not fulfilled

Query: Threshold query (residual activity >= 20%) on COc1ccc(Cl)cc1S(=O)(=O)N(Cc1ccc2c(c1)C=CC(C)(C)O2)c1ccccc1
Response: Fulfilled

Query: Check if residual activity >= 20% (inclusive). Item: CC(C)CN(Cc1ccc2c(c1)C=CC(C)(C)O2)S(=O)(=O)c1ccc(Oc2c(Cl)cccc2[N+](=O)[O-])cc1
Response: Fulfilled

Query: Decide: residual activity of CC1(C)C=Cc2cc(CN(Cc3ccccc3)S(=O)(=O)c3ccc([N+](=O)[O-])cc3)ccc2O1 >= 20%?
Response: Fulfilled

Query: Has COc1ccc(S(=O)(=O)N(Cc2ccc3c(c2)C=CC(C)(C)O3)CC(C)C)cc1OC a recorded residual activity greater than or equal to 20%?
Response: Not fulfilled

Query: Has COc1ccc(Cl)cc1S(=O)(=O)N(Cc1ccccc1)Cc1ccc2c(c1)C=CC(C)(C)O2 a recorded residual activity greater than or equal to 20%?
Response: Fulfilled

Query: Say whether CC1(C)C=Cc2cc(CN(C3CCCCC3)S(=O)(=O)c3ccc([N+](=O)[O-])cc3)ccc2O1 shows residual activity of 20% or more.
Response: Fulfilled
